- Tested on: HCT-15
- assay.overview: NCI-60 single dose screen, sulforhodamine B
- Assay type: cell-based, human
- condition.summary: Colon cancer HCT-15; single dose 10^−5 M
metric: GI% at 10^−5 M

1) O=c1c2ccccc2nc(COc2ccccc2)n1NS(=O)(=O)c1ccccc1
– (– means GI < 10%)
2) O=c1c2ccccc2nc(COc2ccccc2)n1NS(=O)(=O)c1ccc(Cl)cc1
45.60%
3) COc1ccc(NC(=O)CNn2c(COc3ccccc3)nc3ccccc3c2=O)cc1
– (– means GI < 10%)
4) COc1ccc(N2CCN(CC(=O)Nn3c(COc4ccccc4)nc4ccccc4c3=O)CC2)cc1
– (– means GI < 10%)
5) CN1CCN(CC(=O)Nn2c(COc3ccccc3)nc3ccccc3c2=O)CC1
44.04%

Origin of values: paper PMC8843100
